- Test system: Plasmodium Falciparum W2 Strain (Chloroquine resistant)
- assayText: In vitro screening against Plasmodium falciparum, radiolabelled hypoxanthine incorporation, W2 strain
- Type: cell-based
- measurementContext: W2, 66 h
Reported In vitro activity: IC50 values are given for each entry in this list.
The answer is to be given in ng/mL; state only the numeric part.

Worked cases, In vitro activity: IC50 given:
C[C@H]1[C@@H](OCc2c3ccccc3cc3ccccc23)O[C@@H]2O[C@@]3(C)CC[C@H]4[C@H](C)CC[C@@H]1[C@@]24OO3 [Example 12]
187.76
C[C@H]1[C@@H](Oc2ccnc3ccccc23)O[C@@H]2O[C@@]3(C)CC[C@H]4[C@H](C)CC[C@@H]1[C@@]24OO3 [Example 15]
2.03
C[C@H]1[C@H](OCc2cccc3ccccc23)O[C@@H]2O[C@@]3(C)CC[C@H]4[C@H](C)CC[C@@H]1[C@@]24OO3 [11(α-isomer)]
0.70

Note: attention shifts to another entry.
[Q] # In vitro activity: IC50 lookup, item C[C@H]1[C@@H](OCc2ccc3ccccc3c2)O[C@@H]2O[C@@]3(C)CC[C@H]4[C@H](C)CC[C@@H]1[C@@]24OO3 [3(β-isomer)]
[A] 0.63

The measured values listed here are drawn from patent EP0974354A1.
